Could you please report measured inhibition at 0.01 µM for the items listed next?
target: AR protein (Homo sapiens); construct: degradation activity of the compounds disclosed in the present disclosure on AR protein in VCaP cells; host or cells: VCaP; assay: Degradation of AR protein in VCaP cells (Western blot); assay type: cell-based; settings: compound at 10 nM, 8 hours, read-out: Degradation rate of the AR protein in VCaP cells, 10 nM (%)
Sequence (P10275 whole entry): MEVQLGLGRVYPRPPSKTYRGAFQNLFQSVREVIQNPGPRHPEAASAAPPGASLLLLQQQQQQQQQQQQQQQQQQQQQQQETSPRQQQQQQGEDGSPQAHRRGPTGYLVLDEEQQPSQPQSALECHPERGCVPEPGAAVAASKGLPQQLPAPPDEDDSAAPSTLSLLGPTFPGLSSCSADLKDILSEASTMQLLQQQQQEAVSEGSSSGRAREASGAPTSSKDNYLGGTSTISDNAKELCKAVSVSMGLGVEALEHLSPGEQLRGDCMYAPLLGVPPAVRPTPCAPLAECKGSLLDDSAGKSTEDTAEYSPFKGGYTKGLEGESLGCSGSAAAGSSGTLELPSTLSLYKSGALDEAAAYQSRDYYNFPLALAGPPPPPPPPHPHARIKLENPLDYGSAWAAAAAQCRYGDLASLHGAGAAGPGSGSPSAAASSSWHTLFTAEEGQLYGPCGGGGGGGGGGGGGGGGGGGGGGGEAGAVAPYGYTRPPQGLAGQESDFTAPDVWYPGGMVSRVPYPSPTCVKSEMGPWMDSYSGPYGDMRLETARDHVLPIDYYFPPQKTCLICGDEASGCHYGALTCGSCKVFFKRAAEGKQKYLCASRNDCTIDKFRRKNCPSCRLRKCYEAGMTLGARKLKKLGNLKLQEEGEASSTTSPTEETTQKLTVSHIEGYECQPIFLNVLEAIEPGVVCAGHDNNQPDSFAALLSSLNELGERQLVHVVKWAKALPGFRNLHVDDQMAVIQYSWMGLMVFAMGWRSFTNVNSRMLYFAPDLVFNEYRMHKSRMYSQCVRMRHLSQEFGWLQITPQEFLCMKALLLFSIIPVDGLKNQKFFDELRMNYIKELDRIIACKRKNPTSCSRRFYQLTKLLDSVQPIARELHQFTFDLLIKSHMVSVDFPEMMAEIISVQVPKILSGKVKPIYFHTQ
Give bare numbers, in %.

Would you please look over these solved cases?
INSERT INTO assay_data (molecule, measurement) VALUES
  ('C[C@H]1CN(c2ccc(C(=O)N[C@H]3CC[C@H](Oc4ccc(C#N)c(Cl)c4)CC3)nn2)C[C@@H]1CN1CCC2(CC1)COc1c2ccc2c1CN(C1CCC(=O)NC1=O)C2=O (some centres unmarked) [Compound 212]', 60),
  ('N#Cc1ccc(O[C@H]2CC[C@H](NC(=O)c3ccc(N4CCC(CN5CCC6(CCc7cc8c(cc7O6)C(=O)N(C6CCC(=O)NC6=O)C8)CC5)CC4)nn3)CC2)cc1Cl (some centres unmarked) [Compound 44]', 79),
  ('N#Cc1ccc(O[C@H]2CC[C@H](NC(=O)c3ccc(C#CC4CC5(C4)CC(N4CCC6(CC4)COc4c6ccc6c4CN(C4CCC(=O)NC4=O)C6=O)C5)nn3)CC2)cc1Cl (some centres unmarked) [Compound 252]', 80),
  ('CC1(C)[C@H](NC(=O)c2ccc(N3CCC(C#N)(CN4CCC5(CC4)COc4c5ccc5c4CN(C4CCC(=O)NC4=O)C5=O)CC3)nn2)C(C)(C)[C@H]1Oc1ccc(C#N)c(Cl)c1 (some centres unmarked) [Compound 225]', -29),
  ('COc1cc(O[C@H]2CC[C@H](NC(=O)c3ccc(N4CCC(O)(CN5CCC6(CC5)COc5c6ccc6c5C(=O)N(C5CCC(=O)NC5=O)C6=O)CC4)nn3)CC2)ccc1C#N (some centres unmarked) [Compound 215]', 63);

Here are 7 molecules. What values of inhibition at 0.01 µM were reported for them?
1. N#Cc1ccc(O[C@H]2CC[C@H](NC(=O)c3ccc(N4CCC5(CC4)CC(C(=O)N4CCC6(CC4)COc4c6ccc6c4CN(C4CCC(=O)NC4=O)C6=O)C5)nn3)CC2)cc1Cl (some centres unmarked) [Compound 254]
2. COc1cc(O[C@H]2CC[C@H](NC(=O)c3ccc(N4CCC(CN5CC6(CCc7cc8c(cc7O6)C(=O)N(C6CCC(=O)NC6=O)C8=O)C5)(OC)CC4)nn3)CC2)ccc1C#N (some centres unmarked) [Compound 231]
3. N#Cc1ccc(O[C@H]2CC[C@H](NC(=O)c3ccc(N4CCC5(CCC(N6CCC7(CC6)COc6cc8c(cc6C7)C(=O)N(C6CCC(=O)NC6=O)C8=O)CC5)C4)nn3)CC2)cc1Cl (some centres unmarked) [Compound 62]
4. N#Cc1ccc(O[C@H]2CC[C@H](NC(=O)c3ccc(C#CC4CCC(N5CCC6(CC5)COc5c6ccc6c5CN(C5CCC(=O)NC5=O)C6=O)CC4)nc3)CC2)cc1Cl (some centres unmarked) [Compound 235]
5. CCC1(CN2CCC3(CC2)COc2c3ccc3c2C(=O)N(C2CCC(=O)NC2=O)C3=O)CCN(c2ccc(C(=O)N[C@H]3CC[C@H](Oc4ccc(C#N)c(OC)c4)CC3)nn2)CC1 (some centres unmarked) [Compound 250]
6. N#Cc1ccc(O[C@H]2CC[C@H](NC(=O)c3ccc(N4CC(N5CCC6(CC5)Cc5cc7c(cc5O6)C(=O)N(C5CCC(=O)NC5=O)C7=O)C4)nn3)CC2)cc1Cl (some centres unmarked) [Compound 79]
7. N#Cc1ccc(O[C@H]2CC[C@H](NC(=O)c3ccc(N4CCC(CN5CCC6(CC5)COc5cc7c(cc56)C(=O)N(C5CCC(=O)NC5=O)C7=O)CC4)nn3)CC2)cc1Cl (some centres unmarked) [Compound 56]

output:
56
11
66
35
15
36
79
